# Tested on: K. oxytoca
# assay.procedure: Growth of planktonic-growing pathogens (turbidity at 600 nm)
# Format: cell-based, Klebsiella oxytoca
# measurement.setup: 112.5 µg/mL peptide, LB, 18 h, 80 rpm, 30 °C; mean of 2 biological x 8 technical replicates; control 1.21326667
Assign turbidity (600 nm), K. oxytoca to each entry below.
Returns: the value as a bare number; no unit string appended.

Ask: Could you tell me which turbidity (600 nm), K. oxytoca is on file for QLFCTKLSPT [BiP_Aa_2, synthetic peptide from sORF of A. aurita EST clone 112_6C] ?
Reply: 1.204

Ask: // turbidity (600 nm), K. oxytoca lookup, key: THSTMNFELHQRSIQSCSPKLL [BiP_Aa_4, synthetic peptide from sORF of A. aurita EST clone 127_8E]
Reply: 1.219

Ask: Could you share which turbidity (600 nm), K. oxytoca value was measured for GRTTLYKKVGFFFFF [BiP_Ml_3, synthetic peptide from sORF of M. leidyi EST clone 010_9A] ?
Reply: 1.255

Ask: Would you kindly share the measured turbidity (600 nm), K. oxytoca for TNFTRKFPVINSSPHQWYLKD [BiP_Aa_6, synthetic peptide from sORF of A. aurita EST clone 127_8H] ?
Reply: 1.2508

Ask: Look at this sequence and give its reported turbidity (600 nm), K. oxytoca. VRLIVAVRIWRR [IDR-1018, 12 amino acids' cationic AMP, biofilm-preventing control peptide derived from bovine Bactenecin, reference compound]
Reply: 1.187

Ask: Sample VRNSVLFRRRRLVC [BiP_Aa_5, synthetic peptide from sORF of A. aurita EST clone 127_8F] — what was its turbidity (600 nm), K. oxytoca?
Reply: 1.257

====

# Test system: P. aeruginosa
# assay.procedure: Growth of planktonic-growing pathogens (turbidity at 600 nm)
# Format: cell-based, Pseudomonas aeruginosa
# measurement.setup: 112.5 µg/mL peptide, LB, 18 h, 80 rpm, 37 °C; mean of 2 biological x 8 technical replicates; control 1.2788369
Kindly state turbidity (600 nm), P. aeruginosa for each of the entries shown.
# output: bare number, no unit

Ask: What turbidity (600 nm), P. aeruginosa value was documented for this sequence, QLFCTKLSPT [BiP_Aa_2, synthetic peptide from sORF of A. aurita EST clone 112_6C] ?
Reply: 1.2593

Ask: What value of turbidity (600 nm), P. aeruginosa has been reported for the following sequence? TNFTRKFPVINSSPHQWYLKD [BiP_Aa_6, synthetic peptide from sORF of A. aurita EST clone 127_8H]
Reply: 1.284

Ask: Consider the sequence shown here: THSTMNFELHQRSIQSCSPKLL [BiP_Aa_4, synthetic peptide from sORF of A. aurita EST clone 127_8E] What is its recorded turbidity (600 nm), P. aeruginosa?
Reply: 1.281

Ask: Look up turbidity (600 nm), P. aeruginosa: VRNSVLFRRRRLVC [BiP_Aa_5, synthetic peptide from sORF of A. aurita EST clone 127_8F]
Reply: 1.249

Ask: Could you tell me which turbidity (600 nm), P. aeruginosa is on file for VRLIVAVRIWRR [IDR-1018, 12 amino acids' cationic AMP, biofilm-preventing control peptide derived from bovine Bactenecin, reference compound] ?
Reply: 1.23

Ask: Query (sequence): GRTTLYKKVGFFFFF [BiP_Ml_3, synthetic peptide from sORF of M. leidyi EST clone 010_9A] ; field requested: turbidity (600 nm), P. aeruginosa
Reply: 1.255

====

# System: S. epidermidis
# assay.procedure: Growth of planktonic-growing pathogens (turbidity at 600 nm)
# Type: cell-based, Staphylococcus epidermidis
# measurement.setup: 112.5 µg/mL peptide, LB, 18 h, 80 rpm, 37 °C; mean of 2 biological x 8 technical replicates; control 1.3398
For each entry below, report its turbidity (600 nm), S. epidermidis value.
Just the number.

Ask: Fill blank: measured turbidity (600 nm), S. epidermidis of the sequence VRNSVLFRRRRLVC [BiP_Aa_5, synthetic peptide from sORF of A. aurita EST clone 127_8F] is ____.
Reply: 1.301

Ask: Look at this sequence and give its reported turbidity (600 nm), S. epidermidis. QLFCTKLSPT [BiP_Aa_2, synthetic peptide from sORF of A. aurita EST clone 112_6C]
Reply: 1.368

Ask: Field request: turbidity (600 nm), S. epidermidis | item: TNFTRKFPVINSSPHQWYLKD [BiP_Aa_6, synthetic peptide from sORF of A. aurita EST clone 127_8H]
Reply: 1.393

Ask: Value lookup for turbidity (600 nm), S. epidermidis; key = VRLIVAVRIWRR [IDR-1018, 12 amino acids' cationic AMP, biofilm-preventing control peptide derived from bovine Bactenecin, reference compound]
Reply: 1.203

Ask: Query (sequence): THSTMNFELHQRSIQSCSPKLL [BiP_Aa_4, synthetic peptide from sORF of A. aurita EST clone 127_8E] ; field requested: turbidity (600 nm), S. epidermidis
Reply: 1.386

Ask: For GRTTLYKKVGFFFFF [BiP_Ml_3, synthetic peptide from sORF of M. leidyi EST clone 010_9A] , what is its reported turbidity (600 nm), S. epidermidis?
Reply: 1.367
